Test system: MDA-MB-468 breast
Test: NCI-60 one-dose screen, 48 h
Settings: 10 µM unless noted
This is part of a sample that, as a whole, favours compounds with a hit. Of some 83,000 tested, about 20% had one in any assay. Active and inactive are the calls of the source. How the source made its calls: active means growth percent below 10; inactive means the rest.
Outcome codes: active, inactive

itemSmiles	testedTarget	labelValue
O=C(Nc1ccc(Cl)cc1F)c1ccccc1O	MDA-MB-468 breast	active
C=CC(=O)N[C@H](Cc1ccc(-c2cc(Cl)cc(Cl)c2)cc1)[C@H](O)[C@@H](O)C(=O)O	MDA-MB-468 breast	inactive
COc1ccc2c(O)c(/C=C3\N=Nc4ccccc43)oc2c1C[C@@H]1CCNC[C@H]1F	MDA-MB-468 breast	inactive
CC1=C(C)C(=O)C(Nc2cccc(C(=O)OC(C)(C)C)c2)=C(Br)C1=O	MDA-MB-468 breast	active
Cc1[c-]onc1C.Cc1[c-]onc1C.[Ag].[Ag].[NH-]S(=O)(=O)c1ccc(N=Nc2cc(N=Nc3ccc(S([NH-])(=O)=O)cc3)c3c(NC(=O)C(Cl)Cl)cccc3c2OC(=O)C(Cl)Cl)cc1	MDA-MB-468 breast	inactive
COc1ccc(-c2cc(NC(=O)Nc3ccc4ncsc4c3)no2)cc1	MDA-MB-468 breast	inactive
O=C(Nc1nc(Cl)nc(Nc2ccc(N3CCOCC3=O)cc2)n1)c1ccc(Cl)s1	MDA-MB-468 breast	inactive
CCOC(=O)c1ccc(N/C=C/C(=O)c2ccccc2)cc1	MDA-MB-468 breast	inactive
CCOC(=O)CCC[P+](c1ccccc1)(c1ccccc1)c1ccccc1	MDA-MB-468 breast	active

----------
Tested on: MDA-MB-468 breast
Assay: NCI-60 one-dose screen, 48 h
Conditions: 10 µM unless noted
This is part of a sample that, as a whole, favours compounds with a hit. Of some 83,000 tested, about 20% had one in any assay. The source made the active and inactive calls. How the source made its calls: active means growth percent below 10; inactive means the rest.
Outcome codes: True for active, False for inactive

molecule	labelValue
NC1[C@H]2CN(c3cnc(C(=O)Nc4cc(F)cc5cccnc45)cn3)C[C@@H]12 (stereo not given in full)	True
COc1cc(F)c(-c2nc3c(C)cccc3n2Cc2c(F)cccc2F)c(F)c1	False
C=CCn1c(SCC(=O)Nc2ccc(C(=O)/C=C/c3ccc(Cl)cc3)cc2)nnc1-c1ccc(Cl)cc1	False
Nc1nc(-c2ccccc2)c(CCCOc2ccc(NC(=O)CBr)cc2)c(=O)[nH]1	False
Cn1cc(-c2ccc3cc(-c4ccc(CC(=O)Nc5cc(C(C)(C)C)on5)cc4)cnc3c2)cn1	False
COC(=O)[C@]12CC[C@@H](C)[C@H](C)[C@@H]1C1=CC(=O)[C@@H]3[C@@]4(C)C[C@@H](OC(C)=O)[C@H](OC(C)=O)[C@@](C)(COC(C)=O)[C@@H]4C(=O)C[C@@]3(C)[C@]1(C)CC2	False
C=CCC(=O)N[C@H](/C=C/C(=O)O)Cc1ccc(-c2cc(Cl)cc(Cl)c2)cc1	False
NC(=O)c1c(NC(=O)c2cccc(C(F)(F)F)c2)sc2c1CCC(=O)C2	True
C/C(Cc1ccc(Cl)cc1)=C(\c1ccc(OCCN2CCCCCC2)cc1)c1ccc(OC(=O)Cc2ccccc2)cc1	False
COc1ccc(-c2cc(C(=O)N3N=C(c4ccc(N)cc4)CC3c3ccc(OC)cc3)c3cc(OC)ccc3n2)cc1 (stereo not given)	False
Cc1c(CN(C)C)cc(C(C)C)cc1C(C)C	False
Cc1ccc(C(SCC(N)C(=O)O)(c2ccccc2)c2ccc(C)cc2)cc1 (stereo not given)	True
CC(=O)Nc1cccc(Cl)c1C	False
Cc1csc(/N=C(N)/N=C(\N)c2cccs2)n1	False
COc1cc2c(cc1OC)C(=O)OC2	False
Cn1ccnc1C(=O)/C=C/c1ccc(NC(=O)c2c(F)c(F)c(F)c(F)c2F)cc1	False
Nc1nc2ccc([C@@H]3Nc4ccc5[nH]ncc5c4[C@H]4[C@H]5CCC(C5)[C@H]43)cc2s1	True
NC1=Nc2cc(OCCCCN3Cc4ccccc4C3)c(OCC3CC3)cc2C12CCCC2	True
CC1(c2ccc3ccccc3c2)CCC(=O)O1 (stereo not given)	False
O=C(NCCc1nccs1)c1cnc2c(S)cccc2c1	False
CC(=O)c1cc2c(N)c(C(=O)Nc3cccc(F)c3C)sc2nc1C	False
O=C(C[C@@]1(O)C(=O)Nc2c(Cl)ccc(Cl)c21)c1ccc(C2CC2)cc1	True
O=C(CN1CCN(c2cc(=O)[nH]c3ccc(F)cc23)CC1)Nc1ccc(Cl)cc1	False
O=C(C[N+](=O)[O-])c1ccc(Cl)cc1	False
N=C(N)c1ccc(-c2ccc(-c3cc(F)cc(F)c3)o2)nc1	False
N=c1c(S(=O)(=O)c2ccccc2)cc2c(=O)n3ccccc3nc2n1CC1CCCO1 (stereo not given)	False
Brc1ccc(-c2[nH]ncc2-c2c[nH]c3ccccc23)cc1	False
COc1ccc2cc(C3=CC(=O)CCC3)ccc2c1	False
COC12C=C/C(=C(/C(=O)OCc3ccncn3)C(=O)CCCCCCCCC3(OC)C=C/C(=C(/C(=O)OCc4ccncn4)C(=O)CCCCCCCC1)O3)O2	True
O=[N+]([O-])c1cccc(N=NNc2cccc([N+](=O)[O-])c2)c1	False
Cc1cc(Cl)c2ccc(N(C)C)cc2n1	False
OCC1OC(OC2C(O)C(CO)OC2(CO)OC2OC(CO)C(O)C(O)C2O)C(O)C(O)C1O (stereo not given)	False
O=[N+]([O-])c1ccc2[nH]cc(-c3c4ccsc4cc4[nH]c5ccc([N+](=O)[O-])cc5c34)c2c1	True
COc1cc(-c2nnc(SCc3ccc(O)c4ncccc34)n2-c2ccccc2)cc(OC)c1OC	True
c1cnc2n[nH]c(Nc3ncnc4c3sc3ncccc34)c2c1	False
Cc1ccc(C(=O)Nc2ccc(CN3CCN(C)CC3)c(C(F)(F)F)c2)cc1C#Cc1cnc(N)c2ccccc12	True
Cc1cc(N/N=C/c2nc(-c3ccccc3)oc2C)c2cc(Br)ccc2n1	False
Clc1cccc(Cl)c1C1CSc2ccccc2N=C1c1ccccc1 (stereo not given)	False
Cn1c([N+](=O)[O-])cnc1/C=C1\Oc2ccc(Cl)cc2C1=O	True
COC(=O)c1cc(Cl)cc([N+](=O)[O-])c1O	False

----------
Test system: MDA-MB-468 breast
Assay: NCI-60 one-dose screen, 48 h
Conditions: 10 µM unless noted
About 83,000 compounds went through this panel and 20% of them were active in at least one assay; those are over-represented in the sample as a whole. Active and inactive are the calls of the source. The calls were made as follows: active = growth percent below 10; inactive = the rest.
Outcome codes: active, inactive

compound	labelValue
Cn1ccnc1C(=O)C(=O)Nc1ccc(CC(=O)Nc2ccccc2)cc1	inactive
COc1cc(OC)c2cc(C(=O)O)c(=O)oc2c1	inactive
N#C/C(=C\c1ccc2c(c1)OCO2)c1ccccc1	inactive
C=C1C(=O)O[C@H]2[C@H]1CC/C(COC(=O)NCc1c[nH]c3ccc(Br)cc13)=C\CC[C@@]1(C)O[C@@H]21	active
CC[C@@H](c1ccc(O)c(O)c1)[C@@H](CC)c1ccc(O)c(O)c1	inactive
O=C(NCCN1CCOCC1)c1cncnc1Nc1ccc2c(ccn2Cc2ccccn2)c1	inactive
CCCCOc1c(N)cc(Cl)cc1C(=O)OCCN(CC)CC	inactive
ClCC#CCSc1ncnc2c1ncn2CC#CCCl	active
Nc1c(C(=O)Nc2ccccc2)sc2nc3c(cc12)CCC3	inactive
N/C(=N\OC(=O)CSc1nc2ccccc2s1)c1ccc2ccccc2c1	inactive
Cc1nccc2c3ccc(OCc4cn(-c5ccccc5)nn4)cc3n(CCCc3ccccc3)c12	inactive
CN1C(=O)[C@H]2c3c1cccc3[C@@]13NC(=O)O[C@H]1[C@H](CCC3(C)C)C2(C)C	inactive
COc1c2occc2c(OC)c2c(=O)c(-c3cc(-c4ccc(F)cc4)c(C#N)c(N)n3)c(C)oc12	inactive
CCOC(=O)c1[nH]c(-c2ccc(Cl)cc2)cc1-c1cccnc1	active
CC1(C)CC[C@]2(C(=O)OC(=O)[C@]34CCC(C)(C)C[C@@H]3C3=CC[C@@H]5[C@@]6(C)CCC(=O)C(C)(C)[C@@H]6CC[C@@]5(C)[C@]3(C)CC4)CC[C@]3(C)C(=CC[C@@H]4[C@@]5(C)CCC(=O)C(C)(C)[C@@H]5CC[C@]43C)[C@H]2C1	inactive
C/C(=N\OC(=O)Nc1ccccc1)c1ccccc1	inactive
COc1ccc(-c2nnc(N3CCN(C(=O)CN4CCN(c5ccc(OC)cc5)CC4)CC3)nc2-c2ccc(OC)cc2)cc1	active
Cc1ccc(S(=O)(=O)NNC(=O)/C(=C\c2ccc(Cl)cc2)c2nc3ccccc3s2)cc1	inactive
CCCC(OC(C)=O)c1ccc2c(c1)OCO2 (stereo not given)	inactive
CS(=O)(=O)c1ccc(/C(=N/N=C(N)N)c2ccc(F)cc2)cc1	active

----------
System: HS 578T breast
Assay: NCI-60 one-dose screen, 48 h (100 = growth as untreated, 0 = no growth, -100 = all killed)
Settings: 10 µM
Method: Growth inhibition of the HS 578T human tumor cell line is measured as a screen for anti-cancer activity. Cells are grown in 96 well plates and exposed to the test compound for 48 hours. Compounds are tested at a single concentration, which is 10^-5 M for most compounds. The reported endpoint is percent growth (GI% or GIPRCNT), where numbers from 0 - 100% represent growth inhibition, and numbers from -100% - 0 represent cell death. For example, a value of 40 represents 60% growth inhibition. […]
Compounds without any hit were thinned out: in the full panel of roughly 83,000, 20% have a hit.
Response field class: enum, chosen by comparing growth against bottom end (below 20%), midrange (20% to below 80%), top end (80% or more)

molecule	labelValue
CC1(C)CC(=O)C2=C(C1)N(Cc1ccc(C(=O)O)cc1)C1=C(C(=O)CC(C)(C)C1)C2c1ccc(Cl)cc1	top end
COC(=O)CNC(=O)COc1c(OC)c(OC)cc2oc(-c3cccc(C(=O)Nc4ccc(Cl)cc4)c3)cc(=O)c12	bottom end
COc1ccc(-n2c(SCC(=O)NNS(=O)(=O)c3ccccc3)nc3ccc(Cl)cc3c2=O)cc1	top end
C#C[C@]1(O)CC[C@H]2[C@@H]3CC=C4c5sc(Nc6ccc(N(C)C)cc6)nc5CC[C@]4(C)[C@H]3CC[C@@]21C	bottom end
CC(C)(C)c1cc(/C=C2\S/C(=N/c3ncn[nH]3)NC2=O)cc(C(C)(C)C)c1O	bottom end
Cc1ccc2c(c1)C(=O)/C(=C/c1ccc([N+](=O)[O-])cc1)S2	top end
COc1ccccc1-n1cc(C#N)c(N)c1C(=O)c1ccc(Cl)cc1Cl	bottom end
CCOC(=O)C1=C(N)N(c2ccc(C)cc2)C2=C(C(=O)CC(C)(C)C2)C1c1ccccc1Br (stereo unspecified)	top end
COc1ccc(OC)c(-n2cc(C#N)c(N)c2C(=O)c2ccc(Cl)cc2Cl)c1	midrange
Cc1ccc(-c2nc(C#N)c(S(=O)(=O)N3CCN(S(C)(=O)=O)CC3)o2)cc1	top end
O=C(CC(=O)Nc1ccc(Oc2ncnc3scc(Nc4n[nH]c(=S)s4)c23)cc1)Nc1ccc(Br)cc1	top end
COc1ccc(C(=O)COc2ccc(NC(=O)Nc3ccccc3)cc2)cc1	top end
CCOC(=O)c1ccc(NC(=O)CSC(CC(=O)c2sc(Nc3ccccn3)nc2C)c2ccccc2F)cc1 (stereo unspecified)	bottom end
O=C(Nc1ccc(OCc2ccc(Cl)cc2)cc1)Nc1ccc(Cl)c(C(F)(F)F)c1	midrange
Cn1cc(/C=C(/SS/C(=C/c2cn(C)c3cccc(C(=O)O)c23)C(=O)O)C(=O)O)c2c(C(=O)O)cccc21	top end
Cc1cc(N=C2NC(=O)/C(=C/c3cc(C(C)(C)C)c(O)c(C(C)(C)C)c3)S2)n[nH]1	bottom end
COc1cc(C2CC(c3ccc(Oc4ccc(Cl)cc4)cc3)=NN2c2nc(-c3ccc(Cl)cc3)c(C#N)c(N3CCOCC3)n2)cc(OC)c1OC (stereo unspecified)	top end
O=C1NC(=S)S/C1=C\c1cn(-c2ccccc2)nc1-c1ccc([N+](=O)[O-])cc1	midrange
Cn1cc(-c2nnc(N)nc2-c2c[nH]c3ccc(F)cc23)c2cc(Br)cnc21	midrange
O=[N+]([O-])c1cccc(-c2nnc3c(/C=C/c4ccccc4O)nc4ccccc4n23)c1	midrange
Cc1ccc2c(c1)C(=O)/C(=C/c1c[nH]c3ccccc13)S2	midrange
COc1cc2oc(-c3cccc(C(=O)Nc4ccc(Cl)cc4)c3)cc(=O)c2c(OCCNC(=O)[C@@H](N)CO)c1OC	midrange
O=C(CSc1nc2ccccc2c(=O)n1-c1ccc(Cl)cc1)Nc1ccc(-c2nc3ccc([N+](=O)[O-])cc3[nH]2)cc1	bottom end
COc1ccc(C(=O)COc2ccc(NC(=O)Nc3ccc(Cl)c(C(F)(F)F)c3)cc2)cc1	midrange
O=C(Nc1ccc(OCc2ccc(F)cc2)cc1)Nc1ccc(Cl)c(C(F)(F)F)c1	midrange
Cc1ccc(COc2ccc(NC(=O)Nc3ccc(Cl)c(C(F)(F)F)c3)cc2)cc1	top end
O=C(CN1CCN(c2ncnc3c2cnn3-c2ccccc2)CC1)Nc1ccc(Cl)cc1	midrange
Nc1nnc(-c2c[nH]c3ncc(Br)cc23)c(-c2c[nH]c3ccc(Br)cc23)n1	midrange
COc1cc2oc(-c3cccc(C(=O)Nc4ccc(Cl)cc4)c3)cc(=O)c2c(OCCN)c1OC	bottom end
C#C[C@]1(O)CC[C@H]2[C@@H]3CC=C4c5sc(Nc6ccc(C(F)(F)F)cn6)nc5CC[C@]4(C)[C@H]3CC[C@@]21C	bottom end
O=C(c1ccc(Cl)cc1)C(c1c[nH]c2ccccc12)c1c[nH]c2ccccc12	midrange
Cc1ccc(S(=O)(=O)N2CCN(S(=O)(=O)c3oc(-c4ccccc4)nc3C#N)CC2)cc1	top end
Cn1cc(-c2cc(N)n3nc(-c4cn(C)c5ccccc45)cc3n2)c2cc(F)ccc21	bottom end
